Where these numbers come from: patent US9604988B2

Molecular target: HCK (Homo sapiens)
Sequence (P08631 whole entry): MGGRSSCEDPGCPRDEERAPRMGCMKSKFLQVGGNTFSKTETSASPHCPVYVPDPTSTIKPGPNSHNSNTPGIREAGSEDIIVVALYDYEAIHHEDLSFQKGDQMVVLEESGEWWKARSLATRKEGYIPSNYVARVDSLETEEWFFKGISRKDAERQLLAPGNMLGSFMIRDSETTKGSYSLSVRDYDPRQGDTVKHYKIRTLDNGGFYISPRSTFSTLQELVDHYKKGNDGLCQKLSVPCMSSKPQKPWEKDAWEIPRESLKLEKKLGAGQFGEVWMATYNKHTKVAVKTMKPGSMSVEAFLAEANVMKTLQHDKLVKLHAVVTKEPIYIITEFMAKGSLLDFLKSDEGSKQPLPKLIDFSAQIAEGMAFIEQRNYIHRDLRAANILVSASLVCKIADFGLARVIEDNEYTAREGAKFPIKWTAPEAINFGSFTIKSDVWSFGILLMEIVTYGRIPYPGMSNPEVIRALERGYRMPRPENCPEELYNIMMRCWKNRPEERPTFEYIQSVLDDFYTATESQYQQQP
ASSAY_ENDPOINT: IC50 (nM)
The response must be a number in nM with no trailing unit.

# example entries with known answers
Nc1ncnc2c1c(-c1ccc(Oc3ccccc3)cc1)nn2[C@H]1CC[C@H](NC(=O)c2ccncc2)CC1 [Example 20]: 7.9
CN1C2CCC1CC(N[C@H]1CC[C@@H](n3cc(-c4ccc(Oc5ccccc5)cc4)c4c(N)ncnc43)CC1)C2 (stereo partly drawn) [Example 55]: 4.2

For the next question, use this compound.
The compound listed as CN1C2CCC1CN([C@H]1CC[C@H](n3nc(-c4ccc(NC(=O)c5ccccn5)cc4)c4c(N)ncnc43)CC1)C2 [Example 21] has a reported IC50 of 4.7
